- Target Under Test: T1, MICA.008.a3.R202-S297.R202N mIgG2a.Glyco11 (human; mouse, UniProt Q29983 203-297, engineered N-linked glycosylation site R202N)
- T1 construct: not shown: murine IgG2a Fc
- T1 chain: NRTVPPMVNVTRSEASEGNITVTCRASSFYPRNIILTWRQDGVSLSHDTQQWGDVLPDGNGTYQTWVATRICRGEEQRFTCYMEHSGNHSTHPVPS
- Test: ELISA, coated variant;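 further: ELISA with plates coated at 2 ug/ml with MICA*008 alpha 3 glycosylation variants as murine IgG2a Fc fusions, antibody binding detected by HRP anti-human IgG Fc and TMB absorbance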
Measurement Label: binding result

// solved cases for binding result follow
3E11 (antibody, V domains shown, Mouse hybridoma antibody; constant regions differ by assay) VH: EIQLQQSGPELVKPGASVKVSCTASGYAFTKYNIYWVKQSHGKSLEWIGYIDPYTGGTISNQKFTGRATLTVDKSSSTAYLHLNSLTSEDSAVYYCARPGSYWYFGVWGAGTTVTVSS VL: DILMTQTPLSLPVSLGDQASISCRSSQSIVYTNGNTNLEWYLQKPGQSPKLLIYKVSNRFSGVPDRFSGSGSGTDFTLKISRVEAEDLGVYYCFQASYVPFTFGSGTKVEIK	binds
6F8.7 (antibody, V domains shown, Mouse hybridoma antibody; constant regions differ by assay) VH: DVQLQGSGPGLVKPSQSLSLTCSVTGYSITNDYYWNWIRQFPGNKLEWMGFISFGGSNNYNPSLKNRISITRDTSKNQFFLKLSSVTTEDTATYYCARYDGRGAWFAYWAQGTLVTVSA VL: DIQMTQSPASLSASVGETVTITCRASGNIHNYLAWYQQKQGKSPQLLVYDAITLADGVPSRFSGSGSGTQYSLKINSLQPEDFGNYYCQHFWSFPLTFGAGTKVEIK	binds
13A9 (antibody, V domains shown, Mouse variable domains; constant regions differ by assay) VH: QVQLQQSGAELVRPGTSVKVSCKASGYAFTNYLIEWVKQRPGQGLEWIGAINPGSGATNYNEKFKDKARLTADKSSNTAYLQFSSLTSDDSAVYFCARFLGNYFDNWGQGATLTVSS VL: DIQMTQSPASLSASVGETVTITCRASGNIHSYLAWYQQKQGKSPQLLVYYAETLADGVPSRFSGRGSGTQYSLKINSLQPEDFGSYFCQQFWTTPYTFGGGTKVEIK	binds
20G11 (antibody, V domains shown, Mouse hybridoma antibody; constant regions differ by assay) VH: DVQLVESGGGLVQPGGSRKLSCAASGFTFSTFGIHWVRQAPEKGLEWVAYISYDSRTIYYADTVKGRFTISRDNPKNTLFLQMTSLRSEDTAMYYCARWAYEGGVNYFDNWGQGTTLTVSS VL: QIVLTQSPAIMSASLGERVTMTCTATSGVSSSYLHWYQQKPGSSPKLWIYSSSNLASGVPARFSGSGSGTSYSLTIGSMEAEDAATYYCHQFHRSPLTFGTGTKVEIK	binds
12H10 (antibody, V domains shown, Mouse variable domains; constant regions differ by assay) VH: DVQLQESGPGLVKPSQPLSLTCTVTGYSITSNYAWNWIRQFPGDKLEWMGYISSSGITKSNPSLKSRISITRDTSKNQFFLQLNSLTTEDTATYYCSRWSNWSFDVWGAGTTVTVSS VL: DIQMTQTPSSLSVSLGDRVTINCRASQDIHNYFNWYQQKPDGTIKLLIYYTSRFHSGVPSRFSGSGSGTDYSLTISNLEEEDIATYFCQQGNSLPPTFGGGTKLEIK	binds

Query: Name the reported binding result value associated with the binder 1D5 (antibody, V domains shown, Mouse variable domains; constant regions differ by assay (human IgG1 or mouse IgG2a); also called anti-MIC 1D5) VH: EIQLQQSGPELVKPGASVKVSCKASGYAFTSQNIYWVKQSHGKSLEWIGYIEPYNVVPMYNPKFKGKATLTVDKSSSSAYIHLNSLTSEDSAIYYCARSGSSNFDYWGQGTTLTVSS VL: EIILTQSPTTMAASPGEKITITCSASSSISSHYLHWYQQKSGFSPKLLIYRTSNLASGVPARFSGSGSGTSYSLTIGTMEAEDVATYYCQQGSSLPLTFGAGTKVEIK
Response: binds

Query: Name the reported binding result value associated with the binder 6E1.1.12 (antibody, V domains shown, Mouse hybridoma antibody; constant regions differ by assay) VH: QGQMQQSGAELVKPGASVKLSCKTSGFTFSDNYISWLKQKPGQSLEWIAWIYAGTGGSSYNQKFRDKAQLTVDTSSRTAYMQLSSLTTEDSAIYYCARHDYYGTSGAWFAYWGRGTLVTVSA VL: DVLMTQTPLSLPVSLGDQASISCRSSQHIVHSNENTYLEWYLQKPGQSPKLLIYKVSNRFSGVPDRFSGSGSGTDFTLKISRVEAEDLGVYYCFQGSHVPWTFGGGTKVEIK
Response: binds

Recorded values, source patent US20200055939A1.
